Reference for the values: patent US20190053492A1

# maps each entry to its efficacy (caterpillars killed)
# Test system: Spodoptera frugiperda
# measurement.description: Spodoptera frugiperda spray test
# Type: in vivo
# condition.details: application rate 500 g/ha, after 7 days, maize leaf discs
Express the result in % but write the number alone.

molecule="CN(C(=O)c1cc(-c2ccc(C(F)(F)F)cc2)cc(NC(=O)C2CC2)n1)c1cccnc1 [Example I-034]" quantitative_result=100
molecule="CC(C#N)NC(=O)c1cc(-c2ccc(C(F)(F)C(F)(F)F)c(F)c2)cc(NC(=O)C2CC2)n1 (stereo not shown) [Example I-245]" quantitative_result=100
molecule="N#Cc1ccc(CCNC(=O)c2cc(-c3ccc(C(F)(F)F)cc3)cc(NC(=O)C3CC3)n2)cc1 [Example I-046]" quantitative_result=83

Now examine the next entry.
According to the records, this molecule N#Cc1ccc(CNC(=O)c2cc(-c3cc(F)c(C(F)(F)C(F)(F)F)cc3Cl)cc(NC(=O)C3CC3)n2)cc1 [Example I-269] displays efficacy (caterpillars killed) of 83

====

# measurement.description: log P by HPLC on reversed-phase column (C 18), EEC Directive 79/831 Annex V.A8
# Assay type: physicochemical
# condition.details: log P (HCOOH), acidic range at pH 2.7, 0.1% aqueous formic acid and acetonitrile; HPLC on reversed-phase column (C 18), 55° C.
readout: LOGP_HCOOH
Returns: the value as a bare number; no unit string appended.

Some solved entries appear below for comparison.
molecule="CC(NC(=O)c1cc(-c2ccc(OC(F)(F)F)cc2)cc(NC(=O)C2CC2)n1)c1ccc(C#N)cc1 (single isomer, unassigned) [Example I-219]" quantitative_result=4.17
molecule="COC(=O)N(Cc1ccc(C#N)cc1)C(=O)c1cc(-c2ccc(OC(F)(F)F)cc2)cc(NC(=O)C2CC2)n1 [Example I-231]" quantitative_result=4.41
molecule="CC(=O)N(C)c1cc(-c2ccc(OC(F)(F)F)cc2)cc(C(=O)NCc2ccc(C#N)cc2)n1 [Example I-220]" quantitative_result=3.39

Note to self: LOGP_HCOOH recorded for COC(C)C(=O)Nc1cc(-c2ccc(OC(F)(F)F)cc2)cc(C(=O)NCc2ccc(C#N)cc2)n1 (stereo not shown) [Example I-223] was 4.01

Consider N#Cc1ccc(CNC(=O)c2cc(-c3ccc(OC(F)(F)F)cc3Cl)cc(NC(=O)C3CC3)n2)cc1 [Example I-122] . Its measured LOGP_HCOOH is 4.18

The reported LOGP_HCOOH of the molecule O=C(NCc1ccccn1)c1cc(-c2ccc(OC(F)(F)F)cc2)cc(NC(=O)C2CC2)n1 [Example I-116] was 2.88

According to the records, this molecule O=C(Cc1ccc(Br)cc1)Nc1cc(-c2ccc(OC(F)(F)F)cc2)cc(C(=O)NC2CC2)n1 [Example I-125] displays LOGP_HCOOH of 4.46

====

Listing of recorded chromatographic logP by entry.
# measurement.description: log P by HPLC on reversed-phase column (C 18), EEC Directive 79/831 Annex V.A8
# Assay type: physicochemical
# condition.details: reversed-phase HPLC column (C 18), pH 7.8, LC-MS neutral range, pH 7.8, ammonium hydrogencarbonate/acetonitrile, 55° C.; read-out: log P (neutral)
Lab note: record the figure alone, no unit after it.

Answered cases to consult:
smiles_representation=N#Cc1ccc(CNC(=O)c2cc(-c3ccc(C(F)(F)C(F)(F)F)c(F)c3)cc(NC(=O)C3CC3)n2)cc1 quantitative_result=4.14
smiles_representation=COC(=O)N(Cc1ccc(C#N)cc1)C(=O)c1cc(-c2ccc(OC(F)(F)F)cc2)cc(N(C(=O)OC)C(=O)C2CC2)n1 quantitative_result=4.31
smiles_representation=O=C(O)c1cc(-c2ccc(OC(F)(F)F)cc2)cc(NC(=O)C2CC2)n1 quantitative_result=1.25

Continue with the molecule presented below.
# chromatographic logP (molecule: N#Cc1ccc(CNC(=O)c2cc(-c3ccc(OC(F)(F)F)cc3)cc(Cl)n2)cc1 ) is 4.19
